Some binders, each annotated with its measured Max (MFI).
- Target Under Test: T1, human 4-1BB expressed on cells (human, UniProt Q07011 24-255)
- T1 construct: whole, on cells; also called CHO-K1/hu4-1BB; cell surface human 4-1BB
- T1 sequence (Q07011 24-255): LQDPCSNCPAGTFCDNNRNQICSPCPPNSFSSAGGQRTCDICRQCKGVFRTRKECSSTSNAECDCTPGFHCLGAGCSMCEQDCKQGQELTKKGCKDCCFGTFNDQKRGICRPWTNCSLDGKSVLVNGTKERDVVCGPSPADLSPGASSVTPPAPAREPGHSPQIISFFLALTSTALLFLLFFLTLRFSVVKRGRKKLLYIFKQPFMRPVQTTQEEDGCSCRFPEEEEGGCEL
- Test Details: flow cytometry on CHO-K1/hu4-1BB cells, anti-human Fc-Alexa Fluor 633
Answer shape: numeric part, then the unit.

[[record]]
binder = "VV02-1SP (1)-73 huNb_1_2 (Fc fusion, detection by anti-human Fc; not shown: Fc part, implied only by the anti-human Fc secondary antibody) VHH: EVQLLESGGGLVQPGGSLRLSCAASGFTFSSSAMSWARQAPGKELEWVSSIYSSGKTYYVESVKGRFTISRDNAKNTLYLQMSSLRAEDTAVYYCATWKTLRVGVWDESDYWGQGTLVTVSS"
test_value = "5240 MFI"

[[record]]
binder = "VV02-1LP-263 huNb_2_2 (Fc fusion, not shown: a dimerising Fc or GST, detection by anti-human Fc) VHH: EVQLVESGGGLVQPGGSLRLSCAASGFTFSSSAMSWARQAPGKGLEWVSGIYSGGSTYYTESVKDRFTISRDNAKNTLYLQMNSLRPEDTAVYYCATWGTLRFGVWAEYDHWGQGTLVTVSS"
test_value = "23400 MFI"

[[record]]
binder = "VV02-1SP (1)-73 huNb_3_2 (Fc fusion, detection by anti-human Fc; not shown: Human Fc part, implied only by the anti-human Fc secondary antibody) VHH: EVQLVESGGGLVQPGGSLRLSCAASGFTFSSSAMSWARQAPGKGFEWVSSIYSSGKTYYVESVKGRFTISRDNAKNSLYLQMSSLRAEDTAVYYCATWKTLRVGVWDESDYWGQGTLVTVSS"
test_value = "8560 MFI"

[[record]]
binder = "VV02-1SP (1)-73 huNb_3_1 (Fc fusion, detection by anti-human Fc; not shown: Fc part, implied only by the anti-human Fc secondary antibody) VHH: EVQLVESGGGLVQPGGSLRLSCAASGFTFSSSAMSWARQAPGKGFEWVASIYSSGKTYYVESVKGRFTISRDNAKNSLYLQMNSLRAEDTAVYYCARWKTLRVGVWDESDYWGQGTLVTVSS"
test_value = "3700 MFI"

[[record]]
binder = "VV02-1SP (1)-73 huNb_3_3 (Fc fusion, detection by anti-human Fc; not shown: Human Fc part, implied only by the anti-human Fc secondary antibody) VHH: EVQLVESGGGLVQPGGSLRLSCAVSGFTFSSSAMSWARQAPGKEFEWVSSIYSSGKTYYVESVKGRFTISRDNAKNSVYLQMSSLRPEDTAVYYCATWKTLRVGVWDESDYWGQGTLVTVSS"
test_value = "9630 MFI"


Lab note: measured Max (MFI) of VV02-1LP-263 huNb_1_2 (Fc fusion, not shown: a dimerising Fc or GST, detection by anti-human Fc) VHH: EVQLLESGGGLVQPGGSLRLSCAASGFTFSSSAMSWARQAPGKGLEWVSGIYSGGSTYYTESVKDRFTISRDNSKNTVYLQMNSLKPEDTAVYYCATWGTLRFGVWAEYDHWGQGTLVTVSS was 23500 MFI

Consider VV02-1SP (1)-73 huNb_2_2 (Fc fusion, detection by anti-human Fc; not shown: Fc part, implied only by the anti-human Fc secondary antibody) VHH: EVQLVESGGGLIQPGGSLRLSCAASGFTFSSSAMSWARQAPGKEFEWVSSIYSSGKTYYVESVKGRFTISRDNAKNTLYLQMSSLRAEDTAVYYCATWKTLRVGVWDESDYWGQGTQVTVSS . Its measured Max (MFI) is 9270 MFI

Origin of measurements: patent US20240383993A1
